Target: c-Src SH2;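 note: peptide library displayed on the E. coli surface as eCPX fusions, selected cells deep-sequenced, score is each peptide's frequency after selection divided by its frequency in the input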
Test: SH2 binding enrichment of the phosphorylated peptide, bacterial display (enrichment ratio); higher = better substrate or ligand; peptides without Tyr show the background
QUANTITY KIND: SH2 binding enrichment

Known SH2 binding enrichment results, listed for orientation:
input: Indicate the recorded SH2 binding enrichment value for this sequence: LEFNEYFRDLN [HPRT1_Y198_D194E_YF]
output: 0.488

input: Indicate the recorded SH2 binding enrichment value for this sequence: IFETDYFRKGG [INSR_Y1189_YF]
output: 0.472

input: Indicate the recorded SH2 binding enrichment value for this sequence: CRIELYRIVES [IGFBP1_Y181_V183I]
output: 0.556

input: Indicate the recorded SH2 binding enrichment value for this sequence: ILDEAYVMAIV [EGFR_Y764_S768I]
output: 0.432

input: Indicate the recorded SH2 binding enrichment value for this sequence: LTYHMYADPNF [SOS1_Y618]
output: 6.8

input: Indicate the recorded SH2 binding enrichment value for this sequence: QGIIIYKAAFF [SLC25A4_Y187_R188K_YF]
output: 0.373

A: RPDSPYSRLHD [DOK2_Y271_P274L]
B: ARTNEYKIIRT [INA_Y87]
C: YCIDHYLGKEM [G6PD_Y202_R198C]
input: Highest SH2 binding enrichment first, then in falling order down to the smallest. I'd appreciate it if you listed the labels in the requested order.
output: A, C, B

a: VGGRIYIDDGL [PKLR_Y218]
b: CTTIDYNYMCN [TP53_Y234_H233D]
input: Looking at recorded values for SH2 binding enrichment, does a or b come in lower? Indicate which entry you chose by stating its label.
output: a

---

Molecular target: EPHB2 (UniProt P29323)
Sequence (P29323 whole entry, looked up): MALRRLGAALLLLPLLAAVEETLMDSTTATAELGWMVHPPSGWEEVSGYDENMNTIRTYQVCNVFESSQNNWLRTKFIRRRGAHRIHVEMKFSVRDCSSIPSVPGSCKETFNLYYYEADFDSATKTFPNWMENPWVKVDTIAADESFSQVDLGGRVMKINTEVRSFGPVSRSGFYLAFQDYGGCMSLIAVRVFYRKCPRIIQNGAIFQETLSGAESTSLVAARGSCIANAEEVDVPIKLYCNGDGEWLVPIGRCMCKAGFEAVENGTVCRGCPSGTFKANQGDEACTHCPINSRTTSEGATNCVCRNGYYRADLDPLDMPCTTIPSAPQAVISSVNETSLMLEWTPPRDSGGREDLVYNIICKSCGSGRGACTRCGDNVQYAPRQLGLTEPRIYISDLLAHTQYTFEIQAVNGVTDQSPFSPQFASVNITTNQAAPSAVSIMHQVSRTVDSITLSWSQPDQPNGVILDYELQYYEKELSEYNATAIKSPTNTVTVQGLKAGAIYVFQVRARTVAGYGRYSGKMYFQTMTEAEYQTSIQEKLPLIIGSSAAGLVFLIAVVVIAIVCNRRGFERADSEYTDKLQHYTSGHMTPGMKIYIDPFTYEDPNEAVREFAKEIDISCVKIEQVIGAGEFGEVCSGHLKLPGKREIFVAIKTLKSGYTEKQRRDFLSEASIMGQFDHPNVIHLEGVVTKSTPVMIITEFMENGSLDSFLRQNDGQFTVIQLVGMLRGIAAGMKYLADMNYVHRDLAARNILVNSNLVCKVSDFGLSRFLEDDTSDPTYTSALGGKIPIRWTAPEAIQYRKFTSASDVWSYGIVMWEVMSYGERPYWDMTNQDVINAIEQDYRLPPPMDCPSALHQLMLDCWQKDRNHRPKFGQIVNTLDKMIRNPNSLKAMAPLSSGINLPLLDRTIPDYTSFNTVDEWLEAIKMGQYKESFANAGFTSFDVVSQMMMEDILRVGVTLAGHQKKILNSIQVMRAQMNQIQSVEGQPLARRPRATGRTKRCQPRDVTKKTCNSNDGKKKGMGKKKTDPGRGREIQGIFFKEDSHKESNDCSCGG
Assay: phosphorylation enrichment, bacterial display (enrichment ratio); higher = better substrate or ligand; peptides without Tyr show the background
QUANTITY KIND: phosphorylation enrichment
Give a plain numeric answer without units written out.

input: State phosphorylation enrichment on EPHB2 (UniProt P29323). Entry: YMKEPYIQSRF [HIPK4_Y175_V171M]
output: 0.392

Continuing:
input: State phosphorylation enrichment on EPHB2 (UniProt P29323). Entry: SVKVFYKKCWS [EPHA7_Y202_YF]
output: 0.647

input: State phosphorylation enrichment on EPHB2 (UniProt P29323). Entry: QDLTDYLMKIL [ACTA2_Y190_R185Q]
output: 0.772

input: State phosphorylation enrichment on EPHB2 (UniProt P29323). Entry: GSRGKCSSGFR [ATM_Y332_Y332C]
output: 0.379

input: State phosphorylation enrichment on EPHB2 (UniProt P29323). Entry: RIFDYYSARKT [STOX1_Y858_A863T]
output: 0.439

input: State phosphorylation enrichment on EPHB2 (UniProt P29323). Entry: LRRREYQRQDF [PRKRIP1_Y90_YF]
output: 0.559

input: State phosphorylation enrichment on EPHB2 (UniProt P29323). Entry: RGLQVYHRRNA [LRP2_Y2010]
output: 0.86

input: State phosphorylation enrichment on EPHB2 (UniProt P29323). Entry: CLNAIYQNNLT [GSR_Y158_R153C]
output: 0.636

input: State phosphorylation enrichment on EPHB2 (UniProt P29323). Entry: FIILIYAMKKK [SLCO1B1_Y645_YF]
output: 0.385

input: State phosphorylation enrichment on EPHB2 (UniProt P29323). Entry: TEDELYQLSLQ [RASGRP2_Y378]
output: 0.677

input: State phosphorylation enrichment on EPHB2 (UniProt P29323). Entry: GIVEDYRPPLY [ACVRL1_Y421_F425L]
output: 0.482
